# tested.target: Nav1.8 ion channel (Homo sapiens (Human), UniProt Q9Y5Y9)
# experiment: Inhibitory activity on Nav1.8 ion channel, whole-cell patch-clamp on HEK293/Nav1.8
# Format: cell-based
# condition.set: HEK293/Nav1.8, whole-cell patch clamp, holding -80 mV, 1 μM TTX
# Description: Reagents were purchased from Sigma (St. Louis, MO) except NaOH and KOH for acid-base titration. The final concentrations of the test compounds were all prepared on the day of the test and then dissolved in an extracellular fluid. […] For administration of the test samples, perfusion was carried out using a perfusion system utilizing the self gravity. […] The average of the peak current amplitudes recorded for the last 10 times during the initial recording served as the current peak of the negative control. […]
pIC50: −log10 of the molar value.
The entries below come with measured pIC50 values attached.
endpoint.name: pIC50

INSERT INTO assay_data (molecule, meas_value) VALUES
  ('O=C(Nc1ccc[n+]([O-])c1)c1c(Oc2ccc(F)c3c2OC(F)(F)O3)cc(C(F)(F)F)c(Cl)c1F [Compound I-11]', 9.19),
  ('O=C(Nc1cnc[n+]([O-])c1)c1cc(Cl)c(Cl)cc1Oc1ccc(OC(F)(F)F)cc1 [Compound I-1]', 7.85),
  ('Cc1cc(F)ccc1Oc1cc(C(F)(F)F)c(Cl)c(F)c1C(=O)Nc1cnc[n+]([O-])c1 [Compound I-34]', 8.85),
  ('O=C(Nc1cnc[n+]([O-])c1)c1cc(Cl)c(C(F)(F)F)cc1Oc1ccc(OC(F)(F)F)cc1 [Compound I-2]', 7.96),
  ('O=C(Nc1ccc[n+]([O-])c1)c1cc(Cl)c(Cl)cc1Oc1ccc(F)c2c1OC(F)(F)O2 [Compound I-22]', 8.09),
  ('O=C(Nc1ccc[n+]([O-])c1)c1cc(Cl)c(C(F)(F)F)cc1Oc1ccc(F)c2c1OC(F)(F)O2 [Compound I-23]', 8.54),
  ('Cc1cc(F)ccc1Oc1cc(C(F)(F)F)c(Cl)cc1C(=O)Nc1cnc[n+]([O-])c1 [Compound I-31]', 8.01),
  ('O=C(Nc1cnc[n+]([O-])c1)c1c(Oc2ccc(OC(F)(F)F)cc2)cc(Cl)c(Cl)c1F [Compound I-19]', 9.01),
  ('[2H]C([2H])([2H])Oc1cc(OC(F)(F)F)ccc1Oc1cc(Cl)c(Cl)cc1C(=O)Nc1cnc[n+]([O-])c1 [Compound I-24]', 8.66),
  ('O=C(Nc1ccc[n+]([O-])c1)c1c(Oc2ccc(F)c3c2OC(F)(F)O3)cc(Cl)c(Cl)c1F [Compound I-32]', 9.15),
  ('O=C(Nc1cnc[n+]([O-])c1)c1c(Oc2ccc(OC(F)F)cc2)cc(C(F)(F)F)c(Cl)c1F [Compound I-25]', 8.54),
  ('[2H]C([2H])([2H])Oc1cc(F)c(F)cc1Oc1cc(C(F)(F)F)c(Cl)c(F)c1C(=O)Nc1cnc[n+]([O-])c1 [Compound I-28]', 8.89),
  ('COc1cc(OC(F)(F)F)ccc1Oc1cc(Cl)c(Cl)cc1C(=O)Nc1cnc[n+]([O-])c1 [Compound I-18]', 8.62);

* * *

The entries below come with measured Tmax values attached.
# experiment: Pharmacokinetic assay in mice
# Type: in vivo
# condition.set: male, ICR, mouse, plasma, oral intragastric administration, 10 mg/kg
endpoint.name: Tmax

INSERT INTO assay_data (smiles_string, meas_value) VALUES
  ('O=C(Nc1cnc[n+]([O-])c1)c1c(Oc2ccc(OC(F)(F)F)cc2)ccc(C(F)(F)F)c1F', '4 h'),
  ('O=C(Nc1ccc[n+]([O-])c1)c1cc(Cl)c(C(F)(F)F)cc1Oc1ccc(F)c2c1OC(F)(F)O2', '1 h'),
  ('O=C(Nc1cnc[n+]([O-])c1)c1cc(Cl)c(Cl)cc1Oc1ccc(OC(F)(F)F)cc1', '0.25 h'),
  ('O=C(Nc1ccc[n+]([O-])c1)c1cc(Cl)c(C(F)(F)F)cc1Oc1ccc(SC(F)(F)F)cc1', '8 h'),
  ('[2H]C([2H])([2H])Oc1cc(OC(F)(F)F)ccc1Oc1cc(Cl)c(Cl)cc1C(=O)Nc1cnc[n+]([O-])c1', '0.5 h'),
  ('O=C(Nc1ccc[n+]([O-])c1)c1c(Oc2ccc(F)c3c2OC(F)(F)O3)cc(C(F)(F)F)c(Cl)c1F', '1 h'),
  ('O=C(Nc1ccc[n+]([O-])c1)c1cc(Cl)c(Cl)cc1Oc1ccc(F)c2c1OC(F)(F)O2', '1 h');

* * *

The entries below come with measured AUC(0-t) values attached.
# experiment: Pharmacokinetic assay in mice
# Type: in vivo
# condition.set: male, ICR, mouse, plasma, oral intragastric administration, 10 mg/kg
# Method: Pharmacokinetic assay in mice was performed, wherein the mice used were 3 male ICR mice and fasted overnight. The mice were orally intragastrically dosed with the medicament (10 mg/kg). Blood was collected before administration and at 15 min, 30 min and 1 h, 2 h, 4 h, 6 h, 8 h, and 24 h after administration. […] The major pharmacokinetic parameters were analyzed using a non-compartmental model in the WinNonlin 7.0 software.
endpoint.name: AUC(0-t)

INSERT INTO assay_data (smiles_string, endpoint_name, meas_value) VALUES
  ('O=C(Nc1ccc[n+]([O-])c1)c1cc(Cl)c(Cl)cc1Oc1ccc(F)c2c1OC(F)(F)O2', 'AUC(0-t)', '12700 ng·h/mL'),
  ('O=C(Nc1ccc[n+]([O-])c1)c1c(Oc2ccc(F)c3c2OC(F)(F)O3)cc(C(F)(F)F)c(Cl)c1F', 'AUC(0-t)', '9070 ng·h/mL'),
  ('O=C(Nc1ccc[n+]([O-])c1)c1cc(Cl)c(C(F)(F)F)cc1Oc1ccc(SC(F)(F)F)cc1', 'AUC(0-t)', '539000 ng·h/mL'),
  ('[2H]C([2H])([2H])Oc1cc(OC(F)(F)F)ccc1Oc1cc(Cl)c(Cl)cc1C(=O)Nc1cnc[n+]([O-])c1', 'AUC(0-t)', '4560 ng·h/mL'),
  ('COc1cc(OC(F)(F)F)ccc1Oc1cc(Cl)c(Cl)cc1C(=O)Nc1cnc[n+]([O-])c1', 'AUC(0-t)', '3340 ng·h/mL'),
  ('O=C(Nc1cnc[n+]([O-])c1)c1c(Oc2ccc(OC(F)(F)F)cc2)ccc(C(F)(F)F)c1F', 'AUC(0-t)', '96200 ng·h/mL'),
  ('[2H]C([2H])([2H])Oc1cc(F)ccc1Oc1cc(Cl)c(Cl)cc1C(=O)Nc1cnc[n+]([O-])c1', 'AUC(0-t)', '2490 ng·h/mL');
